Test system: Escherichia coli strain ATCC25922
Experiment Description: Standard microdilution MIC assay, E. coli
Format: cell-based
Endpoint Label: MIC

Query :: Dear colleague, I am looking for the recorded MIC of the following molecule: CSc1cc(-n2cc3cc(-c4cc(CCC[C@@H](N)C5CC5)cc(Cl)c4F)[nH]c3nc2=O)ccc1[C@@H]1CCC[C@@H](CCNC(C)=N)N1CCCF
Result :: ≤ 16 µg/mL

Query :: I'd like to know its MIC. The molecule in question is C=C[C@H](N)CCCc1cc(Cl)c(F)c(-c2cc3cn(-c4ccc([C@@H]5CCC[C@@H](CCNC(C)=N)N5)c(S(C)(=O)=O)c4)c(=O)nc3[nH]2)c1
Result :: ≤ 16 µg/mL

Query :: # input molecule: CC(=N)NCC[C@@H]1CCC[C@@H](c2ccc(-n3cc4cc(-c5cc(CCC[C@@H](N)CS(C)(=O)=O)cc(Cl)c5F)[nH]c4nc3=O)cc2)N1 ; wanted: its MIC
Result :: ≤ 16 µg/mL
